ASSAY SYSTEM: Histone deacetylase 9 (Homo sapiens, UniProt Q9UKV0)
Sequence (Q9UKV0 whole entry): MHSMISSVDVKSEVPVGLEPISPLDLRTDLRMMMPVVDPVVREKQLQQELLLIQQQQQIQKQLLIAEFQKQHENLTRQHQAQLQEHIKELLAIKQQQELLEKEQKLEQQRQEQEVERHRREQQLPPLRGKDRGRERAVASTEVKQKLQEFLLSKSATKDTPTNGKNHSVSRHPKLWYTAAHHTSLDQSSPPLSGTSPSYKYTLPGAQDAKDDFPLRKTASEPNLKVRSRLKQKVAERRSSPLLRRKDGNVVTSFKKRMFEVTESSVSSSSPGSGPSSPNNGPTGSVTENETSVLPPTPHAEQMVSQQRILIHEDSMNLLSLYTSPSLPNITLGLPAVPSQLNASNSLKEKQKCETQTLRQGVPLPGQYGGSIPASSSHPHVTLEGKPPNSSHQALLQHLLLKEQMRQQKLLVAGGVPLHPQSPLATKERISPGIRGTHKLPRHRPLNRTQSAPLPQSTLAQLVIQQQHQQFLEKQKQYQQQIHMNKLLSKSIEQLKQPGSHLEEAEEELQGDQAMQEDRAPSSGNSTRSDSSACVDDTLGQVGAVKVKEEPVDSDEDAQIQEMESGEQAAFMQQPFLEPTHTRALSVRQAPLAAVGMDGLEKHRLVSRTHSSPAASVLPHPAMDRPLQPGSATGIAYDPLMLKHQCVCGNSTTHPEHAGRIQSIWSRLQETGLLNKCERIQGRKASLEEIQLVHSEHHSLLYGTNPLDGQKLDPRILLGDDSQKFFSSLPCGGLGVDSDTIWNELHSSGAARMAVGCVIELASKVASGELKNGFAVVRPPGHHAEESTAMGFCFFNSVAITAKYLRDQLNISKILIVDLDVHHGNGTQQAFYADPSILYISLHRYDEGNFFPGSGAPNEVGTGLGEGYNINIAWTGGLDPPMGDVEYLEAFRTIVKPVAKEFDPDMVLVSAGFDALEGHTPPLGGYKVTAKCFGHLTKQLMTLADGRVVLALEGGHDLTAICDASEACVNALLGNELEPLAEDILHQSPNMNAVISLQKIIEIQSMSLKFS
EXPERIMENT: Inhibition of full length human recombinant HDAC9 expressed in Sf9 baculovirus system using FAM-labeled acetylated peptide as substrate by measuring fluorescence intensity by EMSA method
pIC50: −log10 of the molar value.
REPORTED METRIC: pIC50

// field: pIC50; key: `CC(C)N(Cc1ccc(C(=O)NO)cc1)S(=O)(=O)c1cc(F)c(F)c(F)c1F` ; value = < 5.30

* * *

EXPERIMENT: Half life in CD-1 mouse at 20 mg/kg, ip
Type: ADME, organism-based
EXPERIMENTAL PARAMETERS: in vivo
REPORTED METRIC: half-life (h)
Please respond with the number in h and leave the unit unwritten.

// field: half-life; key: `CCCCN(Cc1ccc(C(=O)NO)cc1)C(=O)Nc1ccccc1` ; value = 1.9
